# IC50 per entry
# measured.on: UniProtKB Q96RU2
# Sequence (Q96RU2 whole entry, looked up): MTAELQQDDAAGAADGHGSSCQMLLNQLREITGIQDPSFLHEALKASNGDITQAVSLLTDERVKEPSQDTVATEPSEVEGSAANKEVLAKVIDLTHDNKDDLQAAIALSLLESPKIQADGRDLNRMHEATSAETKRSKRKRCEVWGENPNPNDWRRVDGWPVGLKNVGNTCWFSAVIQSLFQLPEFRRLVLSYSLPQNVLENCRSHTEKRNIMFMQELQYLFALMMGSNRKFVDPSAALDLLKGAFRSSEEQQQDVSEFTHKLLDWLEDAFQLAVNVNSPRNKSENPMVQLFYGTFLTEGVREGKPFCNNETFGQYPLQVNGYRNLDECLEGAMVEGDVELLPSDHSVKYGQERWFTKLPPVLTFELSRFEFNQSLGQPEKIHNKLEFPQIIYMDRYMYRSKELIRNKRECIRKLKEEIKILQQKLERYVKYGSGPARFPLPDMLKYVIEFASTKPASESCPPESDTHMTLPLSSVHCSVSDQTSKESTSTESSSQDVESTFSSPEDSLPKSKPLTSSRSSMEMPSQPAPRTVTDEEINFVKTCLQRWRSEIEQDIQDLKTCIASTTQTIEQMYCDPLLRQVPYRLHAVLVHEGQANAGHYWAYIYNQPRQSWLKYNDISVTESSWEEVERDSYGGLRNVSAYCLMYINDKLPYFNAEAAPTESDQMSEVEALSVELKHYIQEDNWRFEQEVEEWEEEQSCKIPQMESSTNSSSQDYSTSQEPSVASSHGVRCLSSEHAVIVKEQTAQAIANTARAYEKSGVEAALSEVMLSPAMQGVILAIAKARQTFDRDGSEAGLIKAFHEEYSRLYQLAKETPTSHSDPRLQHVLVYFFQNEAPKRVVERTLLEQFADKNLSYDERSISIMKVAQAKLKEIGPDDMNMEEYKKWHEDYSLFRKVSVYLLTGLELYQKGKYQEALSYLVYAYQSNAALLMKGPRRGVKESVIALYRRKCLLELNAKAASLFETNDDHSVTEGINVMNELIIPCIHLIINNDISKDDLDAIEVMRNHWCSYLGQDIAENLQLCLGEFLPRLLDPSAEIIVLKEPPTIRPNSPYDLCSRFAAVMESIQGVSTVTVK
# assay.procedure: Concentration-response biochemical assay confirming initial hits as inhibitors of ubiquitin-specific protease 28 (AID 1645866)
# measurement.setup: purified USP28, ubiquitin-rhodamine fluorescence, 30 min
Activity calls are given as the source filed them.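 Rule for the calls: active = in confirmatory dose-response testing, peak deubiquitinase inhibition of 30% or more; inactive = the rest.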

Known results for compounds:
{"compound": "Cc1cc(C)n(-c2cccc(C(=O)Nc3ccc4c(c3)CCN4S(C)(=O)=O)c2)n1", "measured.on": "UniProtKB Q96RU2", "IC50": "3.69 µM"}
{"compound": "COc1ccc(CNC(=O)CN2C(=O)C(C)=C(c3ccc(C)cc3)S2(=O)=O)cc1", "measured.on": "UniProtKB Q96RU2", "IC50": "> 50 µM (inactive)"}
{"compound": "Cc1ccc(-c2c(C(=O)Nc3ccc(S(N)(=O)=O)cc3)oc(=O)c3ccccc23)cc1", "measured.on": "UniProtKB Q96RU2", "IC50": "30.5 µM"}

For COCCCNC(=O)c1ccc(Cn2c(=O)c3ccccc3n(CC(=O)Nc3ccc(OC)cc3)c2=O)cc1 the compound record lists IC50 as 20.1 µM

For Cc1ccc(-n2cc(C(=O)NCc3cccnc3)nn2)cc1C the compound record lists IC50 as 16.6 µM

For O=C(COC(=O)c1cc(Cl)ccc1O)Nc1ccc2c(c1)OCCO2 the compound record lists IC50 as 24.3 µM

For O=C(CNc1ccc(F)c(Cl)c1)Nc1ccc2c(c1)OCCO2 the compound record lists IC50 as 15.6 µM

For Cc1nc(NCc2ccccn2)c2cc(-c3ccccc3)sc2n1 the compound record lists IC50 as 23.7 µM
